Measured pKd by item
experimentalTarget: Hop K8A (human, UniProt P31948 1-543, K8A)
procedureDetails: fluorescence polarisation
pKd: −log10 of the molar value. Where no end group is shown, it is not given here. 5‑Fam = 5-carboxyfluorescein; Ahx = NCCCCCC(=O)O

The reported value for {5‑Fam-Ahx}-SSGPTIEEVD [Hsc70 C-terminal tracer (Fam-SSGPTIEEVD)] in terms of pKd is < 4.60

// moving on: another record for pKd
pKd for {5‑Fam-Ahx}-GSGPTIEEVD [Hsp72 C-terminal tracer (Fam-GSGPTIEEVD)] is < 4.60
